Test system: Aspergillus flavus
Assay: Antifungal activity against Aspergillus flavus KCCM 11899 after 2 days
Assay type: functional
Settings: KCCM 11899, 48 h
Measured MIC accompanies every entry in the list below.
Measure name: MIC

{"columns": ["Molecule", "Experimental value"],
 "data": [
  ["COc1ccc([C@@H]2[C@@H](Cl)C(=O)N2NC(=O)c2cc(-c3ccc(Cl)cc3)n[nH]2)cc1OC (racemic)", "6.3 µg/mL"],
  ["O=C(NN1C(=O)CSC1c1cccc([N+](=O)[O-])c1)c1cc(-c2ccc(Cl)cc2)n[nH]1 (racemic)", "100 µg/mL"],
  ["COc1ccc([C@@H]2[C@@H](Cl)C(=O)N2NC(=O)c2cc(-c3ccc(Cl)cc3)n[nH]2)cc1 (racemic)", "12.5 µg/mL"],
  ["O=C(NN1C(=O)CSC1c1ccccc1Cl)c1cc(-c2ccc(Cl)cc2)n[nH]1 (racemic)", "50 µg/mL"],
  ["COc1ccc(C2SCC(=O)N2NC(=O)c2cc(-c3ccc(Cl)cc3)n[nH]2)cc1 (racemic)", "25 µg/mL"],
  ["O=C(NN1C(=O)CSC1c1ccccc1[N+](=O)[O-])c1cc(-c2ccc(Cl)cc2)n[nH]1 (racemic)", "50 µg/mL"],
  ["COc1cc(C2SCC(=O)N2NC(=O)c2cc(-c3ccc(Cl)cc3)n[nH]2)ccc1O (racemic)", "12.5 µg/mL"],
  ["O=C(NN1C(=O)[C@H](Cl)[C@H]1c1ccc(Cl)cc1)c1cc(-c2ccc(Cl)cc2)n[nH]1 (racemic)", "12.5 µg/mL"],
  ["O=C(NN1C(=O)CSC1c1ccccc1O)c1cc(-c2ccc(Cl)cc2)n[nH]1 (racemic)", "12.5 µg/mL"]
]}
